Items are presented alongside their recorded z-score.
assay: optical density change of DRC41 E. coli – strain DRC41, OD650, 24 h, E. coli filamentation project, primary screen (AID 1093);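 further: MC1000 strain lacking acrAB efflux and sulA so SOS filamentation is blocked; test concentration not given here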; details: E. coli DRC41 growth, higher = more signal, called active from +8 up or from −8 down
PROPERTY_LABEL: z-score

1. C=CCC(OC(C)=O)[C@@H]1[C@@H](N(Cc2ccc(-c3cccc(C(F)(F)F)c3)o2)C(=O)Cc2ccc(F)cc2)c2cc(OCCCO)ccc2N1C(=O)Cc1ccc2ccccc2c1 (stereo not given in full) :: -1.01
2. O=C(NCc1ccccc1)[C@@H]1c2ccccc2C(=O)N(Cc2ccc(OC(F)(F)F)cc2)[C@H]1c1ccc(CO)cc1 :: 0.301
3. CC(C)c1nc2cc(Br)ccc2c(=O)o1 :: 0.501
4. C[C@@H]1ON(c2ccc(I)cc2)[C@H](c2cccc(NC(=O)OCC3c4ccccc4-c4ccccc43)c2)[C@H]1C(=O)N1C(=O)OC[C@H]1Cc1ccccc1 :: 1.28
5. C=CCOC(=O)[C@@H]1[C@H]2C(=O)O[C@H](c3ccccc3)[C@H](c3ccccc3)N2[C@H](c2ccc(OCCOC(=O)[C@H]3C[C@H]4C(=O)N5CCC[C@H]5C(=O)N4[C@H]3c3cccc(OCCO)c3)cc2)[C@@]12C(=O)Nc1ccc(I)cc12 :: -0.333
6. COCCOC(=O)N1C(=O)[C@@]2(c3cc(C#CCNC(N)=O)ccc31)[C@H](C(=O)Nc1nc3ccccc3s1)[C@H]1C(=O)O[C@H](c3ccccc3)[C@H](c3ccccc3)N1[C@@H]2c1ccccc1OCCO :: 1.17
7. O=C1C2C=CC(C(O)C3CCCCC3)N(n3cnnc3)C2C(=O)N1Cc1ccccc1 (stereo not given) :: 0.596
8. N#Cc1ccc(-c2cccc(=O)o2)cc1 :: -0.675
9. CCCCCCc1nc(Cc2cc(OC)c(OC)c(OC)c2)cc2c1[Si](C(C)C)(C(C)C)O[C@H]2c1ccccc1 :: -1.41
10. COc1cc(CO)cc(I)c1O[C@H]1C=C(C(=O)NCCO)C[C@@H](NC2CCCCCC2)[C@@H]1O :: 1.37
11. Cc1ccc(S[C@]2(C(=O)NCCCN(C)C)CC(=O)N(Cc3ccccc3C(F)(F)F)[C@@H]2c2ccc(CO)cc2I)cc1 :: -0.328
12. CC1CC/C=C\[C@H]2OC34C=CCN(Cn5nnc6ccccc65)C(=O)[C@H]3N(CCCCCCO)C(=O)[C@@H]4C2C(=O)O1 (stereo not given in full) :: 0.167
13. COc1ccc(C(O)C2C=CC3C(=O)NC(=O)C3N2Nc2ccc(Cl)cc2Cl)c2ccccc12 (stereo not given) :: -0.708
14. COC(=O)[C@@]1(Cc2ccc(OC)cc2)[C@H]2c3cc(C(=O)N4CCCC4)n(Cc4ccc(C(F)(F)F)nc4)c3C[C@H]2CN1C(=O)c1ccccc1 :: -1.1
15. O=C(NCC(O)CO)C1N=C(c2ccc(OCCCO)cc2)N(c2ccccc2)O1 (stereo not given) :: 0.153
16. COc1ccc([Si](C)(C)[C@@H]2[C@@H](CC(=O)N(CCO)Cc3ccccc3)O[C@]3(C(=O)N(Cc4ccc(I)cc4)c4ccccc43)[C@H]2C)cc1 :: 1.26
17. CN(C)CCCCNC(=O)[C@H]1C[C@H]2C(=O)N3CCC[C@H]3C(=O)N2[C@H]1c1cccc(OCCO)c1 :: -0.101
18. COCCOC(=O)N1C(=O)[C@@]2(c3cc(C#Cc4ccc(OC)cc4)ccc31)[C@H](c1ccc(OCCO)cc1)N1[C@H](c3ccccc3)[C@H](c3ccccc3)OC(=O)[C@H]1[C@@H]2C(=O)NC[C@H](O)c1ccccc1 :: 0.0136
19. COC(=O)C1(Cc2ccccc2)C=C2C(=C(C)C(=O)C2C)CN1 (stereo not given) :: -0.366
20. C=C(COC)C(=O)CC[C@@H](OC(C)=O)c1ccccc1OCCO :: 0.732
21. CC(C)NC(=O)[C@@H]1c2ccccc2C(=O)N(Cc2ccccc2C(F)(F)F)[C@H]1c1ccc(CO)cc1 :: -0.327
22. COc1ccc([Si](C)(C)[C@@H]2[C@@H](CC(=O)N(CCO)Cc3ccccc3)O[C@]3(C(=O)N(Cc4ccc(N5C(=O)c6cccc7cccc5c67)cc4)c4ccccc43)[C@H]2C)cc1 :: 0.309
23. CN1C(=O)C2C=CC(C(O)c3ccc(-c4ccccc4)s3)N(NC(=O)OC(C)(C)C)C2C1=O (stereo not given) :: -0.328
24. C=C(CCCC)/C(=C/C[C@H](OC(=O)c1ccncc1)c1cccc(OCCO)c1)c1cnc2ccccc2c1 :: -0.268
25. CC(C)C(=C=CC[C@H](O)c1ccccc1OCCO)C[C@H](O)c1cc(Cl)cc(Cl)c1O :: -0.0708
26. C=CCC(OC(C)=O)[C@@H]1[C@@H](N(Cc2ccc(-c3cccc(C(F)(F)F)c3)o2)C(=O)c2ccc(-c3ccccc3)cc2)c2cc(OCCCO)ccc2N1C(=O)c1ccc2ccccc2c1 (stereo not given in full) :: -0.28
27. CC(C)=CCCC(C)=CC(O)C1C=CC2C(=O)NC(=O)C2N1Nc1ccccn1 (stereo not given) :: -0.978
28. C=CCC(OC(C)=O)[C@@H]1[C@@H](N(Cc2cccc3ccccc23)C(=O)Cc2ccc(OC)cc2)c2cc(OCCCO)ccc2N1C(=O)Cc1ccc2ccccc2c1 (stereo not given in full) :: -0.079
29. CC1CC/C=C\[C@H]2OC34C=CCN(c5ccc(Cl)cc5)C(=O)[C@H]3N(CCCCCCO)C(=O)[C@]4(C)C2C(=O)O1 (stereo not given in full) :: 0.206
30. O=C1N(Cc2ccccc2)c2ccccc2C[C@@]12COC(c1ccc(OCCCO)cc1)=N2 :: 1.54
